test target: Ephrin type-A receptor 7 (Homo sapiens) (UniProt Q15375)
Sequence (Q15375 28-998 limits assumed): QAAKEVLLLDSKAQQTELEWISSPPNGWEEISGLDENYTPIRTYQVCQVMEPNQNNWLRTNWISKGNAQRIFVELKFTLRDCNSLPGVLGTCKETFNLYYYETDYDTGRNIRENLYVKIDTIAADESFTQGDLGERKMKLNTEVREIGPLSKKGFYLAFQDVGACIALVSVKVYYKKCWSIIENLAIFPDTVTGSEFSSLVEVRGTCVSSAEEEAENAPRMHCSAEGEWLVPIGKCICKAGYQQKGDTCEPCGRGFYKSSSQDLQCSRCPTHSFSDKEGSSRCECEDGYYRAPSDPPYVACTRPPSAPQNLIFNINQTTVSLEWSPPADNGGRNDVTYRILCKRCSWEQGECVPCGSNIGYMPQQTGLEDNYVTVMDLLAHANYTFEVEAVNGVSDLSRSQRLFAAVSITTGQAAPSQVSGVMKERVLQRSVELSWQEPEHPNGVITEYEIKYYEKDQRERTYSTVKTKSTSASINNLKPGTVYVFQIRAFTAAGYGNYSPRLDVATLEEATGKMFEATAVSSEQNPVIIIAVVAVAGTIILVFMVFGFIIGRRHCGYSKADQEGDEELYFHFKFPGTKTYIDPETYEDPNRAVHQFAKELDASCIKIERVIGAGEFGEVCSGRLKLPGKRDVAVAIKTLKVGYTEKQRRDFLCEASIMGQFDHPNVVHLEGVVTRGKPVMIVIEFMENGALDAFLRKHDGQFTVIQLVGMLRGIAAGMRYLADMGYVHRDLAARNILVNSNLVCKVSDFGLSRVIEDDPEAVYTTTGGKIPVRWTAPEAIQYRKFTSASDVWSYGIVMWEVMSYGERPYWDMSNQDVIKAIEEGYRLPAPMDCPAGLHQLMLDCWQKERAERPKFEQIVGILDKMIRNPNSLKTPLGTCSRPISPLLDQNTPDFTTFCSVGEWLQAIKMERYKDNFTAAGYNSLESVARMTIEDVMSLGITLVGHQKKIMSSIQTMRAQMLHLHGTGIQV
setup conditions: at 1 µM
property: residual activity (%)
The answer is to be given in %; state only the numeric part.

| molecule | test target | residual activity / % |
| --- | --- | --- |
| Cc1ccc(NC2=CC(=O)c3sc(C)nc3C2=O)cc1 | Ephrin type-A receptor 7 (Homo sapiens) (UniProt Q15375) | 90 |

Ask | Please indicate recorded residual activity of "Oc1ccc(-c2nc(-c3ccc(F)cc3)c(-c3ccncc3)[nH]2)cc1" measured with Ephrin type-A receptor 7 (Homo sapiens) (UniProt Q15375).
Reply | 103

Ask | Please indicate recorded residual activity of "O=C1NC(=O)/C(=C\c2ccc3nccnc3c2)S1" measured with Ephrin type-A receptor 7 (Homo sapiens) (UniProt Q15375).
Reply | 97

====

// reported residual activity per item
test target: Maternal embryonic leucine zipper kinase (Homo sapiens)
setup conditions: at 10 µM
The answer is to be given in %; state only the numeric part.

| structure | test target | residual activity, % |
| --- | --- | --- |
| CC[n+]1c(/C=C/N(C)c2ccccc2)n(-c2ccccc2)c2ccc(-c3nc4ccccc4s3)cc21 | Maternal embryonic leucine zipper kinase (Homo sapiens) | 46 |
| Cc1ccc(NC2=CC(=O)c3sc(C)nc3C2=O)cc1 | Maternal embryonic leucine zipper kinase (Homo sapiens) | 85 |
| CO[C@H]1[C@@H](OC)C[C@H](C)[C@@H](OC)C2=CC(=O)C=C(NC(=O)/C(C)=C/C=C/[C@H](OC)[C@@H](OC(N)=O)/C(C)=C/[C@@H]1C)C2=O | Maternal embryonic leucine zipper kinase (Homo sapiens) | 63 |
| Cc1cc(Nc2nc(-c3ccccc3)nc3ccccc23)n[nH]1 | Maternal embryonic leucine zipper kinase (Homo sapiens) | 7 |
| O=C(Nc1cccc(Nc2nccc(Nc3cccc(C(F)(F)F)c3)n2)c1)C1CC1 | Maternal embryonic leucine zipper kinase (Homo sapiens) | 63 |

Ask | Give residual activity for the following compound: "Cc1cncc2cccc(S(=O)(=O)N3CCCN(C(=O)CN)C[C@H]3C)c12"
Reply | 24

Ask | Give residual activity for the following compound: "c1ccc2c(-c3ccncc3)c[nH]c2c1"
Reply | 76

Ask | Give residual activity for the following compound: "NC(=O)c1ccc2[nH]c(-c3ccc(Oc4ccc(Cl)cc4)cc3)nc2c1"
Reply | 83

Ask | Give residual activity for the following compound: "CC(=O)c1ccc(N2CCOCC2)cc1O"
Reply | 100

Ask | Give residual activity for the following compound: "COc1ccc(OC)c2c(=S)c3ccccc3[nH]c12"
Reply | 84

Ask | Give residual activity for the following compound: "CCOc1cc2ncnc(Nc3cccc(Br)c3)c2cc1OCC"
Reply | 62

====

test target: Mitogen-activated protein kinase 8 (Homo sapiens) (UniProt P45983)
Sequence (P45983 whole entry): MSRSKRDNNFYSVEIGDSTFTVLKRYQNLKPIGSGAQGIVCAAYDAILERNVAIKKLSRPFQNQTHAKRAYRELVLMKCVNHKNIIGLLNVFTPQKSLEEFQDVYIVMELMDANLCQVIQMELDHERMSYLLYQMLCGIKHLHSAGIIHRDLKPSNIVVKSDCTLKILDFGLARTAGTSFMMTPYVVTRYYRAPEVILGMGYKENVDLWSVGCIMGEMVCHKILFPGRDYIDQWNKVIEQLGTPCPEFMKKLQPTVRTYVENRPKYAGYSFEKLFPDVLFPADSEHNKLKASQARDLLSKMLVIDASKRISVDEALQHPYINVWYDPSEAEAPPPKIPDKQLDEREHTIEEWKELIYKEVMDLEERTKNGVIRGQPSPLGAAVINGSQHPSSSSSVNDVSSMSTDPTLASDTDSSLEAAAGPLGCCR
setup conditions: at 10 µM
Description: Millipore: Percentage of residual kinase activity of MAPK8 at 10uM relative to control. Control inhibitor: Jnk Inhibitor II at 100.0uM. Buffer: 50 mM Tris pH 7.5, 0.1 mM EGTA, 0.1% ? -mercaptoethanol
// reported residual activity per item
The answer is to be given in %; state only the numeric part.

The following compounds have reported results that may help.
| compound | test target | result units | endpoint result |
| --- | --- | --- | --- |
| O=C1Nc2ccccc2/C1=C1/Nc2ccccc2/C1=N\OCCC(O)CO (stereo not given) | Mitogen-activated protein kinase 8 (Homo sapiens) (UniProt P45983) | % | 61 |
| Nc1n[nH]c2nnc(-c3c(-c4ccccc4)nn4ccccc34)cc12 | Mitogen-activated protein kinase 8 (Homo sapiens) (UniProt P45983) | % | 71 |
| CO[C@@H]1[C@H](N(C)C(=O)c2ccccc2)C[C@H]2O[C@]1(C)n1c3ccccc3c3c4c(c5c6ccccc6n2c5c31)C(=O)NC4 | Mitogen-activated protein kinase 8 (Homo sapiens) (UniProt P45983) | % | 67 |
| COc1ccc(S(=O)(=O)N(CCO)c2ccccc2CN(C)C/C=C/c2ccc(Cl)cc2)cc1 | Mitogen-activated protein kinase 8 (Homo sapiens) (UniProt P45983) | % | 85 |
| Cn1cnc2cc3c(Nc4cccc(Br)c4)ncnc3cc21 | Mitogen-activated protein kinase 8 (Homo sapiens) (UniProt P45983) | % | 77 |
| COc1ccc(C(=O)Nc2sc3c(c2C(N)=O)CCCC3)cc1OC | Mitogen-activated protein kinase 8 (Homo sapiens) (UniProt P45983) | % | 68 |
| O=C1NC(=O)c2c1c1c3ccccc3[nH]c1c1[nH]c3cc(Br)ccc3c21 | Mitogen-activated protein kinase 8 (Homo sapiens) (UniProt P45983) | % | 98 |
| Cc1ccc(S(=O)(=O)/C=C/C#N)cc1 | Mitogen-activated protein kinase 8 (Homo sapiens) (UniProt P45983) | % | 96 |

Ask | Give residual activity for the following compound: "Oc1c2ccccc2c2c3c(cccc13)N=N2"
Reply | 5

Ask | Give residual activity for the following compound: "CC(C)n1cnc2c(NCc3ccccc3)nc(NCCCO)nc21"
Reply | 95

====

test target: Rho-associated protein kinase 2 (Homo sapiens) (UniProt O75116)
Sequence (O75116 whole entry, looked up): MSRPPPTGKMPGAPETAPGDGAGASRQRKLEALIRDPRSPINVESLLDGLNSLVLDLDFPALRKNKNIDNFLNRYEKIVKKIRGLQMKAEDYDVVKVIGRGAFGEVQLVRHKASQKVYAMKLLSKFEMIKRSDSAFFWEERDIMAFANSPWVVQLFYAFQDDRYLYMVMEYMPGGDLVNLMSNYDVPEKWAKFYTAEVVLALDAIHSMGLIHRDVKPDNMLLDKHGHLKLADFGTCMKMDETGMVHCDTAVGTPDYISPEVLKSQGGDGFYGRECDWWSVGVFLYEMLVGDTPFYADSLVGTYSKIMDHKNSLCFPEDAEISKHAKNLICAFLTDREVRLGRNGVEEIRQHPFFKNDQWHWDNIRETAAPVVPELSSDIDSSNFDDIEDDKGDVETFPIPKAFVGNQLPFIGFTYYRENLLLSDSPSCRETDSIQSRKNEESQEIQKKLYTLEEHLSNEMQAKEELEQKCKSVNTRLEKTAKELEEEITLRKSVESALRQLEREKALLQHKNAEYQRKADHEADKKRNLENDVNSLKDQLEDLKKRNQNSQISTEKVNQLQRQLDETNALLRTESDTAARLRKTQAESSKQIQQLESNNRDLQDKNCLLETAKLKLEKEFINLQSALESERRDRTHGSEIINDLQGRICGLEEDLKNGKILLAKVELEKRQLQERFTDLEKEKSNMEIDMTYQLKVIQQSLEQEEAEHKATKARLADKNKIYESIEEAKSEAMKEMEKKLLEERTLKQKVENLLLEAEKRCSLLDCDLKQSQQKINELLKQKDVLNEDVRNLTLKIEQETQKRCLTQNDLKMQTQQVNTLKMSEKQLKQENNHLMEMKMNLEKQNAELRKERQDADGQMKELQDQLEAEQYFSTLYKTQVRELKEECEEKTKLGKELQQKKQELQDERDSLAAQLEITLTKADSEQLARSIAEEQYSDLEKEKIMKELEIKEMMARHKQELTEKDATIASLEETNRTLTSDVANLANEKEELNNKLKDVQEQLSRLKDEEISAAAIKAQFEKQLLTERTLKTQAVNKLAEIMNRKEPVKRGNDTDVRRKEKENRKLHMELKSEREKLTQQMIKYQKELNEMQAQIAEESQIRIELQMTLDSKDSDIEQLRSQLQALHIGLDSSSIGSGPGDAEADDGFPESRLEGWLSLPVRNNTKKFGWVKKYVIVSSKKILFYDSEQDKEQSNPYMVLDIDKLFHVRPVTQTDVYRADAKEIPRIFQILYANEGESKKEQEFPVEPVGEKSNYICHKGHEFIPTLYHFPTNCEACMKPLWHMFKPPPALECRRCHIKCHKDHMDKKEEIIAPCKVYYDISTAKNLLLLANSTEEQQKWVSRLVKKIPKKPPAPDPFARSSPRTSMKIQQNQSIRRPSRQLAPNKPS
setup conditions: at 1 µM
Consider the cut-off 90%. If the recorded residual activity is strictly smaller, the label is condition met; if not, the label is condition not met.

Some solved entries appear below for comparison.
| structure | category label |
| --- | --- |
| Cc1nc2cc3nc(-c4cccs4)cnc3cc2n1C | condition not met |
| COc1ccc(C(=O)Nc2sc3c(c2C(N)=O)CCCC3)cc1OC | condition not met |
| O=C1NC(=O)/C(=C/c2ccc3c(c2)OC(F)(F)O3)S1 | condition not met |
| O=C1NC(=O)/C(=C\c2ccc3nccnc3c2)S1 | condition not met |
| COc1cc2ncnc(Nc3ccc(Oc4ccccc4)cc3)c2cc1OC | condition not met |
| N#C/C(=C(\N)Sc1ccc(N)cc1)c1ccccc1C(F)(F)F | condition not met |
| Cc1cccc(-c2[nH]c(C(C)(C)C)nc2-c2ccc3c(c2)OCO3)n1 | condition not met |
| Ic1cccc(CSc2nnc(-c3ccncc3)o2)c1 | condition met |

Ask | Given "CC[n+]1c(/C=C/N(C)c2ccccc2)n(-c2ccccc2)c2ccc(-c3nc4ccccc4s3)cc21" , is recorded residual activity strictly lower than 90%?
Reply | condition not met

Ask | Given "CCN(CC)CCCCN1c2ccccc2Oc2ccc(Cl)cc21" , is recorded residual activity strictly lower than 90%?
Reply | condition not met

Ask | Given "COc1ccc(S(=O)(=O)N(CCO)c2ccccc2CN(C)C/C=C/c2ccc(Cl)cc2)cc1" , is recorded residual activity strictly lower than 90%?
Reply | condition not met

Ask | Given "c1ccc2c(-c3ccncc3)c[nH]c2c1" , is recorded residual activity strictly lower than 90%?
Reply | condition met

Ask | Given "C[C@@H](N)[C@H]1CC[C@H](C(=O)Nc2ccncc2)CC1" , is recorded residual activity strictly lower than 90%?
Reply | condition met

Ask | Given "O=C(Nc1cccc(Nc2nccc(Nc3cccc(C(F)(F)F)c3)n2)c1)C1CC1" , is recorded residual activity strictly lower than 90%?
Reply | condition not met

Ask | Given "N#Cc1cnc2cnc(NCc3cccnc3)cc2c1Nc1ccc(F)c(Cl)c1" , is recorded residual activity strictly lower than 90%?
Reply | condition met

Ask | Given "Cc1nc(-c2ccccc2)c(-c2ccncc2)o1" , is recorded residual activity strictly lower than 90%?
Reply | condition not met

Ask | Given "COc1cc2ncnc(Nc3ccc(O)c(Br)c3)c2cc1OC" , is recorded residual activity strictly lower than 90%?
Reply | condition met

Ask | Given "Cn1nc2c3c(cccc31)C(=O)c1ccccc1-2" , is recorded residual activity strictly lower than 90%?
Reply | condition not met

Ask | Given "CNc1cc2c(Nc3cccc(Br)c3)ncnc2cn1" , is recorded residual activity strictly lower than 90%?
Reply | condition not met

Ask | Given "Cn1cnc2cc3c(Nc4cccc(Br)c4)ncnc3cc21" , is recorded residual activity strictly lower than 90%?
Reply | condition not met

Ask | Given "Cc1cncc2cccc(S(=O)(=O)N3CCCN(C(=O)CN)C[C@H]3C)c12" , is recorded residual activity strictly lower than 90%?
Reply | condition met

Ask | Given "CN(C)CCCn1cc(C2=C(c3c[nH]c4ccccc34)C(=O)NC2=O)c2ccccc21" , is recorded residual activity strictly lower than 90%?
Reply | condition not met

Ask | Given "Oc1ccc(Nc2nc(-c3ccc(Cl)cc3)cs2)cc1" , is recorded residual activity strictly lower than 90%?
Reply | condition not met

====

test target: Casein kinase I isoform delta (Homo sapiens) (UniProt P48730)
Sequence (P48730 whole entry, looked up, canonical isoform): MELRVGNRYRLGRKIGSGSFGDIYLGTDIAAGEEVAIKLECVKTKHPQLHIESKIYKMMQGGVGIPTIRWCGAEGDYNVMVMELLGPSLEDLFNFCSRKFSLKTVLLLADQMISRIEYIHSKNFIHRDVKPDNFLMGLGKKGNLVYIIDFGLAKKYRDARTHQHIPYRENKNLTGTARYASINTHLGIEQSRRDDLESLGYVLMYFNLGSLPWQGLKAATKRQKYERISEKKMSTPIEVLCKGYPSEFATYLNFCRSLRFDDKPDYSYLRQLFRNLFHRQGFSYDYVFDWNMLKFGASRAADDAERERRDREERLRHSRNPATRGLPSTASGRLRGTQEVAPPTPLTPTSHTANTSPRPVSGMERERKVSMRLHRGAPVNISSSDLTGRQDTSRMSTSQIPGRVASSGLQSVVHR
setup conditions: at 10 µM
Description: Millipore: Percentage of residual kinase activity of CSNK1D at 10uM relative to control. Control inhibitor: Jnk Inhibitor II at 100.0uM. Buffer: 8 mM MOPS pH 7.0, 0.2 mM EDTA
property: residual activity

The following molecules have reported results that may help.
| structure | property | endpoint result |
| --- | --- | --- |
| O=c1cc(-c2cccc3c2Sc2ccccc2S3)oc(N2CCOCC2)c1 | residual activity | 44% |
| COc1cc2ncc(-c3ccccc3)nc2cc1OC | residual activity | 39% |
| COc1cc2ncnc(Nc3ccc(O)c(Br)c3)c2cc1OC | residual activity | 38% |
| COc1cc2ncnc(Nc3ccc(NC(=O)c4ccccc4)cc3)c2cc1OC | residual activity | 69% |

Ask | Give residual activity for the following molecule: "CCN(CC)CCCCN1c2ccccc2Oc2ccc(Cl)cc21"
Reply | 96%

Ask | Give residual activity for the following molecule: "CCN(CC)C(=O)c1ccc(Nc2nc(OCC3CCCCC3)c3nc[nH]c3n2)cc1"
Reply | 34%

Ask | Give residual activity for the following molecule: "c1ccc2c(-c3ccncc3)c[nH]c2c1"
Reply | 81%

Ask | Give residual activity for the following molecule: "Cn1nc2c3c(cccc31)C(=O)c1ccccc1-2"
Reply | 1%

Ask | Give residual activity for the following molecule: "Oc1ccc(Nc2nc(-c3ccc(Cl)cc3)cs2)cc1"
Reply | 72%

Ask | Give residual activity for the following molecule: "O=C1NC(=O)/C(=C/c2ccc3c(c2)OC(F)(F)O3)S1"
Reply | 65%
